target: human ether-à-go-go-related gene (hERG) potassium channel (human, UniProt Q12809); assay: primary screen, population patch clamp on CHO cells stably expressing hERG; higher = less effect of the substance;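 further: peak tail current of the secondary pulse compared with the same well before compound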
Sequence (Q12809 whole entry, looked up): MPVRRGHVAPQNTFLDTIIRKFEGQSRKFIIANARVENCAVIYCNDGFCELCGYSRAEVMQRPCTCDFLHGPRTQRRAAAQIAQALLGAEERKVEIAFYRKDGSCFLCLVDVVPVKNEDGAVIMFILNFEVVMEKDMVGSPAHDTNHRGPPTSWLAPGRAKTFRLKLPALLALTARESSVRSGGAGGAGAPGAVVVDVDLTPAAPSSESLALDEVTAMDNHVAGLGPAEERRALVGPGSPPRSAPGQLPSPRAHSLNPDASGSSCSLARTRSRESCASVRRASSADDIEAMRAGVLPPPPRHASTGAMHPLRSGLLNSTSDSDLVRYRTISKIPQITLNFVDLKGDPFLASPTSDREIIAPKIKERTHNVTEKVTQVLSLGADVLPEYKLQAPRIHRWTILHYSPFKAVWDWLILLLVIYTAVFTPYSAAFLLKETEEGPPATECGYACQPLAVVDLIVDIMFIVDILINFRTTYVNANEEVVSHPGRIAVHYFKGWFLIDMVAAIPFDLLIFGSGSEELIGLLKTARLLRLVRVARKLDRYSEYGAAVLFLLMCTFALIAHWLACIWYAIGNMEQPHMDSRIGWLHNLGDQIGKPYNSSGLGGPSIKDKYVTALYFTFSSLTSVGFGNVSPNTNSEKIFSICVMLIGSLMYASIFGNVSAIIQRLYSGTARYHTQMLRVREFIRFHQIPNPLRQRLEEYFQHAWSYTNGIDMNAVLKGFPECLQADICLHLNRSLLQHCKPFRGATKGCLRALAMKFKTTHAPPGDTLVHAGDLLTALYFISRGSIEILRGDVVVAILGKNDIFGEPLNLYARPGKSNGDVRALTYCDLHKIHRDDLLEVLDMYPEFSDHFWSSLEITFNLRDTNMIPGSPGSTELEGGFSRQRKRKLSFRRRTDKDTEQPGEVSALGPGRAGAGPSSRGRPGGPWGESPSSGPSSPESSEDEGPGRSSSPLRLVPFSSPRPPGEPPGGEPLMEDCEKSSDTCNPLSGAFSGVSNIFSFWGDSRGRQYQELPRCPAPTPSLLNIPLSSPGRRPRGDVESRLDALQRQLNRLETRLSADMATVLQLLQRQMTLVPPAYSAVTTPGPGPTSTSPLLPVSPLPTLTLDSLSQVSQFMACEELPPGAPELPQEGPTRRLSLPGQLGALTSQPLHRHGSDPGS
About 14,000 (4.5%) of roughly 310,000 compounds showed an effect of 50% or more. Effects have a minus sign here. The list comes from a sample in which strong results are over-represented; it also holds close analogues and randomly drawn compounds.
// hERG current change (%, negative = inhibition) at 10uM lookup, one value per entry
Hi! Could you send only the number? It should be in %, unit omitted.

Would you please look over these solved cases?
CC1CCCN(CC(=O)Nc2cccc([N+](=O)[O-])c2)C1 (stereo not shown)
-16.7
Cc1ccc(NC(=O)CCNC(=O)c2ccc(Cl)cc2)cc1F
9.19

Attention now shifts to the item below.
Ask: Consider the compound CC1CCCN(CCCOc2ccc([N+](=O)[O-])cc2)C1.O=C(O)C(=O)O (stereo not shown) and give its recorded hERG current change (%, negative = inhibition) at 10uM.
Reply: -74.7

* * *

Entries and their measured hERG current change (%, negative = inhibition) at 10uM follow.
target: human ether-à-go-go-related gene (hERG) potassium channel (human, UniProt Q12809); assay: primary screen, population patch clamp on CHO cells stably expressing hERG; higher = less effect of the substance;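 further: peak tail current of the secondary pulse compared with the same well before compound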
Hit rate of the full screen: of about 310,000 compounds, about 14,000 (4.5%) showed an effect of 50% or more. Effects have a minus sign here. Shown is part of a subset that was picked to be rich in strong results.
Report the figure in % without appending any unit label.

Some compounds with recorded hERG current change (%, negative = inhibition) at 10uM:
O=C(Nc1ccc(C(=O)O)cc1)/C(=C\c1ccc2c(c1)OCO2)NC(=O)c1ccc(Br)cc1
5.36
Cc1ccccc1S(=O)(=O)Cc1ccc(C(=O)NC2CCCCC2)o1
-1.84

Ask: Return hERG current change (%, negative = inhibition) at 10uM for the following compound: Cc1cccc(CCNC(=O)C2CCCN(c3cnccn3)C2)c1 (stereo not drawn)
Reply: -11.5

Ask: State its hERG current change (%, negative = inhibition) at 10uM for this compound: CC(=O)c1ccc(NC(=O)C2CCCN2S(=O)(=O)c2cccc3cccnc23)cc1 (stereo not drawn)
Reply: 7.11

Ask: Respond only with hERG current change (%, negative = inhibition) at 10uM recorded for O=C(Nc1cccc(C(=O)O)c1)/C(=C\c1ccc2c(c1)OCO2)NC(=O)c1ccc(Br)cc1
Reply: 17.9

Ask: Identify measured hERG current change (%, negative = inhibition) at 10uM associated with CNC(=O)/C(=C\c1ccc2c(c1)OCO2)NC(=O)c1ccc(Br)cc1
Reply: -56.5

Ask: Respond only with hERG current change (%, negative = inhibition) at 10uM recorded for COC(=O)C[C@H]1c2cc(C(F)(F)F)ccc2S(=O)(=O)N1c1ccc(N(C)C)cc1
Reply: -20.9

Ask: Give the reported value of hERG current change (%, negative = inhibition) at 10uM for this record: COc1ccc(NC(=O)[C@@H]2CC=C[C@@H]3CCN(Cc4ccccc4)C(=O)[C@@H]32)cc1
Reply: -8.12

Ask: Return hERG current change (%, negative = inhibition) at 10uM (reported value) for this compound: O=[N+]([O-])c1ccccc1/C=N/NC1=NCCN1
Reply: 7.6

Ask: Output measured hERG current change (%, negative = inhibition) at 10uM for this item: CC(C)CN(C(=O)c1ccc(N2CCCC2=O)cc1)c1c(N)n(Cc2ccccc2)c(=O)[nH]c1=O
Reply: 19.6

Ask: Identify hERG current change (%, negative = inhibition) at 10uM associated with the compound O=C(CSc1nc(C(F)(F)F)cc(=O)[nH]1)N1CCCC1
Reply: 19

Ask: Report hERG current change (%, negative = inhibition) at 10uM, nothing else, for this compound: CNC(=O)/C(=C/c1ccc2c(c1)OCO2)NC(=O)c1ccc(Br)cc1
Reply: -63.4

meta.source: paper PMC4336329
